- assay.target: THR beta-LBD (Homo sapiens, UniProt P10828)
- Construct: THR beta-LBD (the final concentration is 0.5 nM) was added to the 384-well assay plate; purchased Invitrogen PV4686
- Sequence (P10828 217-461 limits assumed): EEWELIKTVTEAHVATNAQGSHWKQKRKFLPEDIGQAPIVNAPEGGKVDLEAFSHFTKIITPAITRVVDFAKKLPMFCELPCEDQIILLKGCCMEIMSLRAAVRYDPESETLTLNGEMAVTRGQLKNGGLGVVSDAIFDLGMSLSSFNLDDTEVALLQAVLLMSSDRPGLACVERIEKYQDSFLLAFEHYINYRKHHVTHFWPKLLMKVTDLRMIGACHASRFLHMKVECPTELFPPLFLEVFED
- assay.remarks: THR-β Coactivator Peptide Recruitment Assay (LanthaScreen TR-FRET)
- Assay type: biochemical
- cond: TR-FRET coactivator recruitment, THR beta-LBD 0.5 nM; read-out: THRβ EC50
pEC50: −log10 of the molar value.
metric.name: pEC50

> print(dat)
                                    compound                              assay.target        result
 1  O=C(N1CCCC1)C1(NS(=O)(=O)c2cc(Oc3c(Cl)cc(-n4nc(C(F)F)c(=O)[nH]c4=O)cc3Cl)ncc2O)CC1  THR beta-LBD (Homo sapiens, UniProt P10828)        < 7.00
 2  NC(=O)CNS(=O)(=O)c1cc(Oc2c(Cl)cc(-n3nc(C(F)F)c(=O)[nH]c3=O)cc2Cl)ccc1O  THR beta-LBD (Homo sapiens, UniProt P10828)        > 8.70
 3  N#C[C@H]1C[C@@H](NS(=O)(=O)c2cc(Oc3c(Cl)cc(-n4nc(C(F)F)c(=O)[nH]c4=O)cc3Cl)ncc2O)C1  THR beta-LBD (Homo sapiens, UniProt P10828)  7.70 to 8.70
 4  O=C(c1cc(Oc2c(Cl)cc(-n3nc(Cl)c(=O)[nH]c3=O)cc2Cl)ccc1O)N1C[C@H]2CC[C@@H]1C2 (single isomer, unassigned)  THR beta-LBD (Homo sapiens, UniProt P10828)        > 8.70
 5  O=c1[nH]c(=O)n(-c2cc(Cl)c(Oc3ccc(O)c(S(=O)(=O)NC4C[S+]([O-])C4)c3)c(Cl)c2)nc1C(F)F (stereo not shown)  THR beta-LBD (Homo sapiens, UniProt P10828)  7.00 to 7.70
 6  O=C(NC1CCC1)c1cc(Oc2c(Cl)cc(-n3nc(C(F)(F)F)c(=O)[nH]c3=O)cc2Cl)ccc1O  THR beta-LBD (Homo sapiens, UniProt P10828)  7.00 to 7.70
 7  O=C(c1cc(Oc2c(Cl)cc(-n3nc(Cl)c(=O)[nH]c3=O)cc2Cl)ccc1O)N1C[C@@H]2CC[C@H]1C2 (single isomer, unassigned)  THR beta-LBD (Homo sapiens, UniProt P10828)        > 8.70
 8  O=c1[nH]c(=O)n(-c2cc(Cl)c(Oc3cc(S(=O)(=O)NC[C@H]4C[C@@H](O)C4)c(O)cn3)c(Cl)c2)nc1C(F)F  THR beta-LBD (Homo sapiens, UniProt P10828)  7.00 to 7.70
 9  O=C(NCC1(NS(=O)(=O)c2cc(Oc3c(Cl)cc(-n4nc(C(F)F)c(=O)[nH]c4=O)cc3Cl)ccc2O)CC1)C1CC1  THR beta-LBD (Homo sapiens, UniProt P10828)        > 8.70
10  O=C(NC12CC3(F)CC(F)(CC(F)(C3)C1)C2)c1cc(Oc2c(Cl)cc(-n3nc(C(F)F)c(=O)[nH]c3=O)cc2Cl)ccc1O  THR beta-LBD (Homo sapiens, UniProt P10828)  7.00 to 7.70
11  N#CC12CC(NS(=O)(=O)c3cc(Oc4c(Cl)cc(-n5nc(C(F)F)c(=O)[nH]c5=O)cc4Cl)ccc3O)(C1)C2  THR beta-LBD (Homo sapiens, UniProt P10828)        > 8.70
12  CNS(=O)(=O)c1cc(Oc2c(Cl)cc(-n3nc(C(F)F)c(=O)[nH]c3=O)cc2Cl)ncc1OC  THR beta-LBD (Homo sapiens, UniProt P10828)  7.00 to 7.70
13  Cc1cc(-n2nc(C(F)F)c(=O)[nH]c2=O)cc(C)c1Oc1cc(S(=O)(=O)N[C@H]2C[C@H](O)C2)c(O)cn1  THR beta-LBD (Homo sapiens, UniProt P10828)        < 7.00
